Tested on: Vero E6 infected with SARS-CoV-2
Assay: inhibition of SARS-CoV-2 cytopathic effect; higher = more antiviral protection, active = above 15
Conditions: 10000 nM; 48 h
QUANTITY MEASURED: inhibition of SARS-CoV-2 cytopathic effect (%)

[[record]]
compound = "CC(=O)[C@H]1CC[C@H]2[C@@H]3CC=C4C[C@@H](O)CC[C@]4(C)[C@H]3CC[C@]12C [pregnenolone]"
test_system = "Vero E6 infected with SARS-CoV-2"
unit_spec = "%"
assay_value = -3.04

[[record]]
compound = "CCOCOC[C@H](C[C@H](C)C(=O)NO)NC(=O)c1ccc(Oc2ccccc2)cc1"
test_system = "Vero E6 infected with SARS-CoV-2"
unit_spec = "%"
assay_value = -6.18

[[record]]
compound = "O=C(O)[C@H]1CCCN(CCC=C(c2ccccc2)c2ccccc2)C1 (racemic)"
test_system = "Vero E6 infected with SARS-CoV-2"
unit_spec = "%"
assay_value = -2.22

[[record]]
compound = "CC1CCc2cc(F)cc3c(=O)c(C(=O)O)cn1c23 (centres undefined) [flumequine]"
test_system = "Vero E6 infected with SARS-CoV-2"
unit_spec = "%"
assay_value = -0.64

[[record]]
compound = "CC/C(=C(\\c1ccccc1)c1ccc(OCCN(C)C)cc1)c1ccccc1 [tamoxifen]"
test_system = "Vero E6 infected with SARS-CoV-2"
unit_spec = "%"
assay_value = 11.2

[[record]]
compound = "CC(=O)N[C@H]1[C@@H](O)[C@H](O)[C@@H](CO)O[C@@H]1O [N-acetylmannosamine]"
test_system = "Vero E6 infected with SARS-CoV-2"
unit_spec = "%"
assay_value = 1.32

[[record]]
compound = "N#CCC1(n2cc(-c3ncnc4[nH]ccc34)cn2)CN(C2CCN(C(=O)c3ccnc(C(F)(F)F)c3F)CC2)C1 [itacitinib]"
test_system = "Vero E6 infected with SARS-CoV-2"
unit_spec = "%"
assay_value = -3.04

[[record]]
compound = "Oc1nc(-c2ccc(C(F)(F)F)cc2)nc2c1CSCC2"
test_system = "Vero E6 infected with SARS-CoV-2"
unit_spec = "%"
assay_value = 0.15

[[record]]
compound = "CCn1c(-c2nonc2N)nc2cnc(Oc3cccc(NC(=O)c4ccc(OCCN5CCOCC5)cc4)c3)cc21"
test_system = "Vero E6 infected with SARS-CoV-2"
unit_spec = "%"
assay_value = -5.7

[[record]]
compound = "COc1ccccc1NC(=O)OCC1CCN(C(=O)OC(C)(C)C)CC1"
test_system = "Vero E6 infected with SARS-CoV-2"
unit_spec = "%"
assay_value = 0.81

[[record]]
compound = "COc1ccc(C2(CNC(=O)c3ccc(NC(=O)c4ccco4)cc3)CCOCC2)cc1"
test_system = "Vero E6 infected with SARS-CoV-2"
unit_spec = "%"
assay_value = -2.44

[[record]]
compound = "Cc1ncc(OC[C@@]2(c3cccc(F)c3)C[C@H]2C(=O)Nc2ccc(F)cn2)c(C)n1 [lemborexant]"
test_system = "Vero E6 infected with SARS-CoV-2"
unit_spec = "%"
assay_value = -1.06

[[record]]
compound = "Nc1ccn([C@H]2CC[C@@H](CO)O2)c(=O)n1 [zalcitabine]"
test_system = "Vero E6 infected with SARS-CoV-2"
unit_spec = "%"
assay_value = -0.03

[[record]]
compound = "CCC(=O)N1CCN(c2ccc(-n3c(=O)ccc4cnc5ccc(-c6cnc7ccccc7c6)cc5c43)cc2C(F)(F)F)CC1 [torin-1]"
test_system = "Vero E6 infected with SARS-CoV-2"
unit_spec = "%"
assay_value = -0.2

[[record]]
compound = "Oc1ccc(C(O)CNCCCCCCNCC(O)c2ccc(O)c(O)c2)cc1O (centres undefined) [hexoprenaline]"
test_system = "Vero E6 infected with SARS-CoV-2"
unit_spec = "%"
assay_value = -2.87

[[record]]
compound = "Cc1cccc(-c2[nH]c(CNc3ccccc3F)nc2-c2ccc3ncnn3c2)n1"
test_system = "Vero E6 infected with SARS-CoV-2"
unit_spec = "%"
assay_value = 2.46

[[record]]
compound = "CCCCCCCCCCCCCCCC(=O)O[C@@H]1[C@@H](O)[C@@H](O)[C@@H]([C@H](NC(=O)[C@@H]2C[C@@H](CCC)CN2C)[C@H](C)Cl)O[C@@H]1SC [clindamycin-palmitate]"
test_system = "Vero E6 infected with SARS-CoV-2"
unit_spec = "%"
assay_value = -3.94

[[record]]
compound = "COc1ccc(C(=O)N2CCCc3cc(C4=NNC(=O)SC4C)ccc32)cc1OC (centres undefined)"
test_system = "Vero E6 infected with SARS-CoV-2"
unit_spec = "%"
assay_value = 4.36

[[record]]
compound = "CC(C)[C@@]1(NC(=O)[C@@H]2C[C@@H]3c4cccc5[nH]cc(c45)C[C@H]3N(C)C2)O[C@@]2(O)[C@@H]3CCCN3C(=O)[C@H](Cc3ccccc3)N2C1=O [dihydroergocristine]"
test_system = "Vero E6 infected with SARS-CoV-2"
unit_spec = "%"
assay_value = -1.9

[[record]]
compound = "O=c1c2ccccc2[se]n1-c1ccccc1 [ebselen]"
test_system = "Vero E6 infected with SARS-CoV-2"
unit_spec = "%"
assay_value = -3.01

[[record]]
compound = "COc1cc(Nc2ncc(F)c(Nc3ccc4c(n3)NC(=O)C(C)(C)O4)n2)cc(OC)c1OC"
test_system = "Vero E6 infected with SARS-CoV-2"
unit_spec = "%"
assay_value = -4.19

[[record]]
compound = "NCCc1c[nH]cn1 [histamine]"
test_system = "Vero E6 infected with SARS-CoV-2"
unit_spec = "%"
assay_value = 1

[[record]]
compound = "CCOC(=O)[C@H](CCc1ccccc1)N[C@@H](C)C(=O)N1[C@H](C(=O)O)C[C@H]2CCCC[C@@H]21 [trandolapril]"
test_system = "Vero E6 infected with SARS-CoV-2"
unit_spec = "%"
assay_value = 1.62

[[record]]
compound = "C#CC1(OCC(O)CN2CCN(c3cccc(C(F)(F)F)c3)CC2)CCCCC1 (centres undefined) [terciprazine]"
test_system = "Vero E6 infected with SARS-CoV-2"
unit_spec = "%"
assay_value = -3.3

[[record]]
compound = "CCc1cnc(N2CCC(c3nc(COc4ccc(-n5cnnn5)cc4)cs3)CC2)nc1"
test_system = "Vero E6 infected with SARS-CoV-2"
unit_spec = "%"
assay_value = 0.22

[[record]]
compound = "Oc1ccc2c3c1O[C@H]1c4oc5ccccc5c4C[C@@]4(O)[C@@H](C2)N(CC2CC2)CC[C@]314 [naltriben]"
test_system = "Vero E6 infected with SARS-CoV-2"
unit_spec = "%"
assay_value = -2.94

[[record]]
compound = "c1ccc(CN(CC2=NCCN2)c2ccccc2)cc1 [antazoline]"
test_system = "Vero E6 infected with SARS-CoV-2"
unit_spec = "%"
assay_value = -3.78

[[record]]
compound = "NCC1CC(=O)N(Cc2ccccc2)C1 (centres undefined) [nebracetam]"
test_system = "Vero E6 infected with SARS-CoV-2"
unit_spec = "%"
assay_value = 0.26

[[record]]
compound = "C=CC(C)(C)c1cc(/C=C/C(=O)c2ccc(O)cc2)c(OC)cc1O [licochalcone-A]"
test_system = "Vero E6 infected with SARS-CoV-2"
unit_spec = "%"
assay_value = 8.6

[[record]]
compound = "COc1ccc(C2CC(c3ccccc3)=NN2c2ccc(S(N)(=O)=O)cc2)cc1 (centres undefined)"
test_system = "Vero E6 infected with SARS-CoV-2"
unit_spec = "%"
assay_value = 0.95

[[record]]
compound = "O=C(Oc1ccc([N+](=O)[O-])cc1)N1CCN(Cc2cccc(Oc3ccccc3)c2)CC1"
test_system = "Vero E6 infected with SARS-CoV-2"
unit_spec = "%"
assay_value = 1.51

[[record]]
compound = "Nc1nccc2c1ncn2[C@@H]1O[C@H](CO)[C@@H](O)[C@@H]1O [3-deazaadenosine]"
test_system = "Vero E6 infected with SARS-CoV-2"
unit_spec = "%"
assay_value = -2.6

[[record]]
compound = "CN1C(=O)C(F)=C[C@]2(C)[C@H]3CC[C@]4(C)[C@@H](C(=O)NCc5nc6cccnc6[nH]5)CC[C@H]4[C@@H]3CC[C@@H]12"
test_system = "Vero E6 infected with SARS-CoV-2"
unit_spec = "%"
assay_value = 1.08

[[record]]
compound = "C[C@@H]1CCN(C(=O)CC#N)C[C@@H]1N(C)c1ncnc2[nH]ccc12"
test_system = "Vero E6 infected with SARS-CoV-2"
unit_spec = "%"
assay_value = -0.5

